The origin of these recorded values is paper PMC4144951.

Target: the molecule itself
Experiment: SEC-coupled SAXS; inline HPLC, Shodex KW404-4F, 20°C, 20 mM HEPES, 150 mM NaCl, pH 7.4, 2.5 mM DTT; 75 µl of 5 mg/ml HSPB6 or equivalent molarity loaded (ΔN11: 111 µl of 3.37 mg/ml); mass at the peak maximum from I0 and Porod volume; number of subunits of the oligomer
observedProperty: stoichiometry N (subunits)
Use subunits as the unit, but write only the number.

### Prompt I have this protein here, HSPB6 Δ11–20 (natural protein, human, UniProt O14558 1-160, looked up, HSPB6, human, full-length protein with residues 11-20 deleted; also called ΔN11–20; source: E. coli NiCo21 (DE3) with pRARE2, purified (subtractive IMAC, anion exchange, SEC); not shown: SUMO, N-terminal, cleaved) MEIPVPVQPSGLSAPGRLFDQRFGEGLLEAELAALCPTTLAPYYLRAPSVALPVAQVPTDPGHFSVLLDVKHFSPEEIAVKVVGEHVEVHARHEERPDEHGFVAREFHRRYRLPPGVDPAAVTSALSPEGVLSIQAAPASAQAPPPAAAK , and I need its recorded stoichiometry N.
### Response 1.8

### Prompt I have this protein here, HSPB6 Q31L (natural protein, human, UniProt O14558 1-160, looked up, HSPB6, human, full-length protein with the point mutation Q31L; source: E. coli NiCo21 (DE3) with pRARE2, purified (subtractive IMAC, anion exchange, SEC); not shown: SUMO, N-terminal, cleaved) MEIPVPVQPSWLRRASAPLPGLSAPGRLFDLRFGEGLLEAELAALCPTTLAPYYLRAPSVALPVAQVPTDPGHFSVLLDVKHFSPEEIAVKVVGEHVEVHARHEERPDEHGFVAREFHRRYRLPPGVDPAAVTSALSPEGVLSIQAAPASAQAPPPAAAK , and I need its recorded stoichiometry N.
### Response 4.3

### Prompt I have this protein here, HSPB6 ΔN11 (domain or fragment, human, UniProt O14558 12-160, looked up, HSPB6, human, without its first 11 residues (ΔN10 begins with the sole tryptophan; ΔN11 removes it too); Prone to aggregate; could not be concentrated above about 4-5 mg/ml; also called ΔN11-construct; source: E. coli NiCo21 (DE3) with pRARE2, purified (subtractive IMAC, anion exchange, SEC); not shown: SUMO, N-terminal, cleaved) LRRASAPLPGLSAPGRLFDQRFGEGLLEAELAALCPTTLAPYYLRAPSVALPVAQVPTDPGHFSVLLDVKHFSPEEIAVKVVGEHVEVHARHEERPDEHGFVAREFHRRYRLPPGVDPAAVTSALSPEGVLSIQAAPASAQAPPPAAAK , and I need its recorded stoichiometry N.
### Response 2.5
